Recorded values, source ChEMBL document CHEMBL3871307.

Experiment: Mean residence time in mouse plasma at 2 mg/kg, iv or 30 mg/kg, po by LC/MS/MS analysis
Format: ADME, organism-based
Assay readout: MRT (h)
Numbers only, in h.

Query: Fill blank: measured MRT of the compound CO[C@H]1C[C@H](Oc2cc(F)c(F)c(-c3ccc4c(c3)CC[C@H](CCC(=O)O)O4)n2)C1 is ____.
Response: 2.4

###

Molecular target: Free fatty acid receptor 4 (Homo sapiens) (UniProt Q5NUL3)
Sequence (whole entry): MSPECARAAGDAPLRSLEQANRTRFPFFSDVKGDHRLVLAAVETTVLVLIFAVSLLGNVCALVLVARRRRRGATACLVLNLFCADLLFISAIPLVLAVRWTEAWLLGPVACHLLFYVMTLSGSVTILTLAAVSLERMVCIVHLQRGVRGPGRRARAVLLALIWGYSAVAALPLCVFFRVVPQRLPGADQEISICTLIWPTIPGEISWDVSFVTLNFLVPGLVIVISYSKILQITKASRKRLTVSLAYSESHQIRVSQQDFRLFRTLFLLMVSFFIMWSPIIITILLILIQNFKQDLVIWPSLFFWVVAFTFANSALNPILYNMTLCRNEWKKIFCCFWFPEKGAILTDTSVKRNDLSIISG
Experiment: Agonist activity at human GPR120 short isoform expressed in CHOK1 cells assessed as increase in IP1 accumulation at 10 uM after 60 mins by HTRF assay
Type: functional, cell-based
Details: CHO-K1
Give measured Activity for each item. Keep answers brief.

INSERT INTO results (item_smiles, result) VALUES
  ('O=C(O)CC[C@H]1CCc2cc(-c3cc(OC(F)(F)F)ccc3F)ccc2O1', '> 50%'),
  ('COc1cc(O[C@H]2C[C@H](OC)C2)cc(-c2ccc3c(c2)CC[C@H](CCc2nnn[nH]2)O3)c1F', '> 50%'),
  ('Fc1ccc(OC2CCC2)cc1-c1ccc2c(c1)CC[C@H](CCc1nnn[nH]1)O2', '44%'),
  ('COc1cc(O[C@H]2C[C@H](OC)C2)cc(-c2ccc3c(c2)CC[C@H]([C@@H]2C[C@H]2C(=O)O)O3)c1F', '> 50%');

Query: Would you kindly share the measured Activity for O=C(O)CC[C@H]1CCc2cc(-c3cc(OC4CCC4)cc(Cl)c3F)ccc2O1 ?
Response: > 50%
